Test system: rodent lifetime carcinogenesis bioassay, tumor incidence TD50
Test: carcinogenic potency in animals, long-term in vivo studies, CPDB compilation (AID 1745844)
Settings: mouse; strain B6C3F1; males; by gavage; site: mesenteric lymph node + multiple organs + small intestine + spleen; lesion: malignant lymphoma, mixed type; dosed 103 weeks; study length 104 weeks
readout label: TD50

-- ask Return reported TD50; argument: CCCC(Cl)CCCC(Cl)CCC(Cl)CCC(Cl)CCC(Cl)CCCC(Cl)CCC (stereo unspecified)
-- reply 12100 mg/kg/day

---

System: rodent lifetime carcinogenesis bioassay, tumor incidence TD50
Assay: carcinogenic potency in animals, long-term in vivo studies, CPDB compilation (AID 1745844)
Conditions: rat; strain Fischer 344; females; in drinking water; site: liver; lesion: cholangioadenoma/carcinoma; dosed 75 weeks; study length 130 weeks
readout label: TD50 (mg/kg/day)
Numeric only. Scale: mg/kg/day

-- ask Given the entry `O=NN(CCO)CCO` , report its measured TD50.
-- reply 56.8

---

Tested on: rodent lifetime carcinogenesis bioassay, tumor incidence TD50
Experiment: carcinogenic potency in animals, long-term in vivo studies, CPDB compilation (AID 1745844)
Conditions: rat; strain Sprague-Dawley; males; by gavage; site: extrahepatic tissue; lesion: angioma; dosed 52 weeks; study length 127 weeks
readout label: TD50 (mg/kg/day)
API: value field is a number in mg/kg/day; no unit string.

-- ask For the molecule `C=CCl` , what TD50 is on record?
-- reply 409

---

System: rodent lifetime carcinogenesis bioassay, tumor incidence TD50
Assay: carcinogenic potency in animals, long-term in vivo studies, CPDB compilation (AID 1745844)
Conditions: mouse; strain C3H/HeN; males; in feed; site: liver; lesion: hepatocellular adenoma; dosed 52 weeks; study length 52 weeks
Measured TD50 values are reported for all entries that follow.
Don't forget the unit after the value.

compound: C[N+](C)(C)CCO
result: 5650 mg/kg/day

-- ask Please look up its TD50: CSCCC(N)C(=O)O (configuration not stated)
-- reply 4160 mg/kg/day

---

Test system: rodent lifetime carcinogenesis bioassay, tumor incidence TD50
Assay: carcinogenic potency in animals, long-term in vivo studies, CPDB compilation (AID 1745844)
Conditions: mouse; strain Charles River CD1; males; in drinking water; site: lung; lesion: alveolar/bronchiolar adenoma; dosed 52 weeks; study length 52 weeks
readout label: TD50

-- ask GET /values?readout=TD50&item= `CN(C)N`
-- reply 5.18 mg/kg/day

---

System: rodent lifetime carcinogenesis bioassay, tumor incidence TD50
Assay: carcinogenic potency in animals, long-term in vivo studies, CPDB compilation (AID 1745844)
Conditions: mouse; strain Monohybrid cross offspring of B6CF1 (C57BL/6 x BALB/c); females; in feed; site: pituitary gland; lesion: adenoma; dosed 144 weeks; study length 153 weeks
readout label: TD50

-- ask Return TD50 measured with rodent lifetime carcinogenesis bioassay, tumor incidence TD50 given this molecule: `CC/C(=C(/CC)c1ccc(O)cc1)c1ccc(O)cc1`
-- reply 0.0456 mg/kg/day

---

System: rodent lifetime carcinogenesis bioassay, tumor incidence TD50
Assay: carcinogenic potency in animals, long-term in vivo studies, CPDB compilation (AID 1745844)
Conditions: rat; strain Colworth (Wistar derived); females; in drinking water; site: liver; lesion: intrahepatic bile duct tumor, benign; dosed 176 weeks; study length 176 weeks
readout label: TD50

-- ask For the compound `CN(C)N=O` , what TD50 is on record?
-- reply 0.0763 mg/kg/day
